The values you see were collected from ChEMBL document CHEMBL1201862.

# Test system: SK-MEL-2
# METHOD_SUMMARY: NCI tumour cell line growth inhibition, 48 h
Active and inactive are the calls of the source. Rule as the data show it: active = GI50 up to about 1.1 µM and inactive = higher.
Please reply with one of these outcomes: Y (active), N (inactive)

Check out these entries, answers already filled in.
Entry NC(=S)N/N=C/c1c[nH]c2ccccc12 : call = ?
N

What would you report for COc1ccc(C(=O)N2c3ccccc3N(C)n3cccc3C2CC(=O)O)cc1 (stereo unspecified) ?
N

Let us now turn to Nc1c2c(=O)[nH]c(=O)c2c(N)c2c(=O)c3ccccc3c(=O)c12
N

Follow-up item: O=C(/C=c1\oc(=O)/c(=C/C(=O)c2ccc(Cl)cc2)oc1=O)c1ccc(Cl)cc1
N

Also check COc1ccc2c(c1)CCC(CN1CCN(CCOC(c3ccccc3)c3ccccc3)CC1)C2O (stereo unspecified)
N

--- query ---
Assay result, entry CC(C)c1ccc(/C=C(\NC(=O)c2ccccc2)c2nc3ccccc3[nH]2)cc1 — outcome?
N

====

# System: HT-29
# METHOD_SUMMARY: NCI tumour cell line growth inhibition, 48 h
Calls of active or inactive are those of the source. Rule as the data show it: active = GI50 up to about 1.1 µM and inactive = higher.
Could you please report measured GI50 for the items listed next?

Could you tell me which GI50 is on file for O=C(/C=C/c1c(O)ccc2ccccc12)c1ccccc1 ?
15.7 µM (inactive)

Answer for every listed entry: what is its GI50? The entries follow.
1. CC1(C)CCc2cc3c(cc2O1)OCC1c2cc4c(cc2OC31)OCO4 (configuration not stated)
2. COC(=O)/C(C#N)=C1\NN=NN1CCCN1CCOCC1
3. COc1ccc(CC2c3cc(OC)c(OC)c(OC)c3CC[N+]2(C)C)cc1Oc1ccc(CC2c3cc4c(c(OC)c3CC[N+]2(C)C)OCO4)cc1 (configuration not stated)
4. O=C1C=C(Cl)C(=O)C(c2ccc(Cl)cc2)=C1
5. CCCCCCCCCC/C=C/C=O

> 100 µM (inactive)
> 100 µM (inactive)
> 100 µM (inactive)
23.7 µM (inactive)
> 100 µM (inactive)

Dear colleague, I am looking for the recorded GI50 of the following molecule: CC(C)(C)C1(O)Cc2ccccc2C(=O)O1 (configuration not stated)
> 100 µM (inactive)

====

# System: NCI-H226
# METHOD_SUMMARY: NCI tumour cell line growth inhibition, 48 h
Activity calls are given as the source filed them. Cut-off read from the data, not from the text of the source: active = GI50 up to about 1.1 µM and inactive = higher.
ASSAY_ENDPOINT: GI50

What value of GI50 on NCI-H226 does Brc1ccc(-c2ccc(-c3ccc(Br)s3)s2)s1 have?
> 100 µM (inactive)

Fill in GI50 for each of the 3 compounds listed.
1. CN1CCc2c(sc3nc(S)nc(S)c23)C1
2. Cc1cc(S(=O)(=O)Nc2nc(N)n[nH]2)c(Cl)cc1Cl
3. CC1=C(C(=O)Nc2ccccc2)C(c2ccc3c(c2)OCO3)C(C(=O)Nc2ccccc2)=C(C)N1

1: > 100 µM (inactive); 2: > 10 µM (inactive); 3: 39.6 µM (inactive)

====

Assignment: determine reported GI50 for the given molecules.
# Tested on: KM12
# METHOD_SUMMARY: NCI tumour cell line growth inhibition, 48 h
Activity calls are given as the source filed them. No stated cut-off is given here; in the data, active = GI50 up to about 1.1 µM and inactive = higher.

# example entries with known answers
Quick one: GI50 for C1CCC(OCc2nnn3c2CCC3)OC1 (stereo not drawn) ?
> 100 µM (inactive)

What do you have for Cc1cccc(C)c1NC(=O)CCCC(=O)C1/C(=N/NC(=O)CC#N)CCC/C1=N\NC(=O)CC#N (stereo not drawn) ?
> 100 µM (inactive)

Continue with the next molecule.
What does the data say about its GI50? Entry: Cc1cc2c(cc1-c1cc3c(cc1C)C(C(C)C)=C(O)C(=O)/C3=C\Nc1c3ccccc3nc3ccccc13)/C(=C/Nc1c3ccccc3nc3ccccc13)C(=O)C(O)=C2C(C)C
3.09 µM (inactive)
